Ref: patent US8633245B2

Target: recombinant human PAI-1 (Homo sapiens)
Construct: purchased Molecular Innovations, Inc
Sequence (P05121 24-402): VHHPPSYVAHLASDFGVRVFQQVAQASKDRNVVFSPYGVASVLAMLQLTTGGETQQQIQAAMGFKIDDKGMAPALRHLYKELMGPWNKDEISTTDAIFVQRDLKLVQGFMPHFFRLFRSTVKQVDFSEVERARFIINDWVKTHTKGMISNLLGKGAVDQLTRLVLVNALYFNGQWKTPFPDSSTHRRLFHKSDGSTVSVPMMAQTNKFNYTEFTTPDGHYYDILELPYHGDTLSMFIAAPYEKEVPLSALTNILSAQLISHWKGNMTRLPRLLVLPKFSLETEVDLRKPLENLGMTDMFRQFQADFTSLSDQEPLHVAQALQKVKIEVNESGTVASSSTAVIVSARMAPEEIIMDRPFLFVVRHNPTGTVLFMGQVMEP
Experiment: Test Example 2: human PAI-1 inhibitory activity (tPA fluorogenic substrate, pH 7.4 HEPES buffer)
Type: biochemical
Settings: human PAI-1; compound concentration 3 μM
readout-kind: Inhibition Rate of PAI-1 Activity (%)

# compound, readout-kind, result
records = [
    ("O=C(O)C(=O)N(CCCCc1ccccc1)c1ccc(N2CCSCC2)c(-c2ccc(OC(F)(F)F)cc2)c1", "Inhibition Rate of PAI-1 Activity (%)", ">99%"),
    ("CC(C)(C)c1ccc(Sc2cc(-c3ccc(OC(F)(F)F)cc3)ccc2CCC(=O)O)cc1", "Inhibition Rate of PAI-1 Activity (%)", ">99%"),
    ("CC(C)(C)c1ccc(Oc2cc(-c3ccccc3OC(F)(F)F)ccc2OCC(=O)O)cc1", "Inhibition Rate of PAI-1 Activity (%)", "98%"),
    ("CC(C)(C)c1ccc(Oc2cc(-c3ccc4ccccc4c3)ccc2CCC(=O)O)cc1", "Inhibition Rate of PAI-1 Activity (%)", ">99%"),
    ("CC(C)(C)C1CCC(CN(C(=O)C(=O)O)c2ccc(-c3ccc(OC(F)(F)F)cc3)cc2)CC1 (centres unmarked) [Compound 679]", "Inhibition Rate of PAI-1 Activity (%)", ">99%"),
    ("CC(C)(C)c1ccc(Oc2cc(-c3cc(Cl)ccc3Cl)ccc2/C=C/C(=O)O)cc1", "Inhibition Rate of PAI-1 Activity (%)", ">99%"),
    ("CC(C)(C)c1ccc(Sc2cc(-c3ccc(OC(F)(F)F)cc3)ccc2CC(=O)O)cc1", "Inhibition Rate of PAI-1 Activity (%)", ">99%"),
    ("COc1ccc(-c2ccc(OC(F)(F)F)cc2)cc1N(CCCCc1ccccc1)C(=O)C(=O)O", "Inhibition Rate of PAI-1 Activity (%)", "74%"),
    ("CCCCCOc1ccc(-c2ccc(OCC(=O)O)c(Oc3ccc(C(C)(C)C)cc3)c2)cc1", "Inhibition Rate of PAI-1 Activity (%)", ">99%"),
    ("CCCCCCCCCCN(C(=O)C(=O)O)c1ccc(-c2ccc(OC(F)(F)F)cc2)cc1", "Inhibition Rate of PAI-1 Activity (%)", ">99%"),
    ("O=C(O)CCc1ccc(-c2ccc(OC(F)(F)F)cc2)cc1OC(c1ccccc1)c1ccccc1", "Inhibition Rate of PAI-1 Activity (%)", ">99%"),
]
